- Assay system: Aurora kinase B (Homo sapiens, UniProt Q96GD4)
- Sequence (Q96GD4 whole entry): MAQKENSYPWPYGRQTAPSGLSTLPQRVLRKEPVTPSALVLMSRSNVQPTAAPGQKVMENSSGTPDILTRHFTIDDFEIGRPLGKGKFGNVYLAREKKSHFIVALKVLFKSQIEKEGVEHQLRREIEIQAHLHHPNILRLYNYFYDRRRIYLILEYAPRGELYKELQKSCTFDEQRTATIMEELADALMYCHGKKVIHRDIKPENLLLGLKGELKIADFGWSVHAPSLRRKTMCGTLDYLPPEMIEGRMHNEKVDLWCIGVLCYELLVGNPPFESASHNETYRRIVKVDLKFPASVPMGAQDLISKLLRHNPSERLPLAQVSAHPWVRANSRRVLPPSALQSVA
- Assay protocol: Inhibition of Aurora B in human HCT116 cells assessed as inhibition of histone H3 phosphorylation by immunofluorescence assay
- Assay type: cell-based, HCT-116
Outcome measure: pIC50
pIC50 field: float, defined as -log10 of concentration (mol/L).

| Compound | Assay system | pIC50 |
| --- | --- | --- |
| Cc1cn2c(-c3cn[nH]c3)cnc2c(Nc2cc(CN3CCCCC3)ns2)n1.Cl | Aurora kinase B (Homo sapiens, UniProt Q96GD4) | 7.35 |
| Cc1cn2c(-c3cn[nH]c3)cnc2c(Nc2cc(CN3CC(F)(F)C3)ns2)n1.O=C(O)C(F)(F)F | Aurora kinase B (Homo sapiens, UniProt Q96GD4) | 7.12 |
| Cc1cn2c(-c3cn[nH]c3)cnc2c(Nc2cc(CN(CC(F)F)C(C)(C)CO)ns2)n1.Cl | Aurora kinase B (Homo sapiens, UniProt Q96GD4) | 6.51 |
| Cc1cn2c(-c3cn[nH]c3)cnc2c(Nc2cc(CN3CC[C@H](F)C3)ns2)n1.Cl | Aurora kinase B (Homo sapiens, UniProt Q96GD4) | 7.03 |
| Cc1cn2c(-c3cn[nH]c3)cnc2c(Nc2cc(CN(CC(F)(F)F)C(C)(C)CO)ns2)n1.Cl | Aurora kinase B (Homo sapiens, UniProt Q96GD4) | 6.70 |
| Cc1cn2c(-c3cn[nH]c3)cnc2c(Nc2cc(CN3CC(F)(F)C(F)(F)C3)ns2)n1.Cl | Aurora kinase B (Homo sapiens, UniProt Q96GD4) | 7.30 |
| Cl.[2H]C([2H])(c1cc(Nc2nc(C)cn3c(-c4cn[nH]c4)cnc23)sn1)N1CCC(F)(F)C1 | Aurora kinase B (Homo sapiens, UniProt Q96GD4) | 7.20 |
| Cc1cn2c(-c3cn[nH]c3)cnc2c(Nc2cc(CN3CCC(F)CC3)ns2)n1.Cl | Aurora kinase B (Homo sapiens, UniProt Q96GD4) | 7.07 |
| Cc1cn2c(-c3cn[nH]c3)cnc2c(Nc2cc(CN3CC(F)C3)ns2)n1.O=C(O)C(F)(F)F | Aurora kinase B (Homo sapiens, UniProt Q96GD4) | 6.72 |
| Cc1cn2c(-c3cn[nH]c3)cnc2c(Nc2cc(CN3CCCC(F)(F)C3)ns2)n1.Cl | Aurora kinase B (Homo sapiens, UniProt Q96GD4) | 7.10 |

Fill in the blank: the reported pIC50 of Cc1cn2c(-c3cn[nH]c3)cnc2c(Nc2cc(CN3CCCC3)ns2)n1 is ____. 7.06

Check Cc1cn2c(-c3cn[nH]c3)cnc2c(Nc2cc(CN3CCC(F)(F)C3)ns2)n1.Cl too. 7.04

Next compound: Cc1cn2c(-c3cn[nH]c3)cnc2c(Nc2cc(CNCCC(F)(F)F)ns2)n1.Cl 7.20

Try this compound too: Cc1cn2c(-c3cn[nH]c3)cnc2c(Nc2cc(CNCC(F)(F)C(F)(F)F)ns2)n1.Cl 7.29

Query CCN(Cc1cc(Nc2nc(C)cn3c(-c4cn[nH]c4)cnc23)sn1)C(C)(C)CO next 7.60

Follow-up item: Cc1cn2c(-c3cn[nH]c3)cnc2c(Nc2cc(CN3CC[C@@H](F)C3)ns2)n1.Cl 7.09

# iterate: Cc1cn2c(-c3cn[nH]c3)cnc2c(Nc2cc(CN3CCC(F)(F)CC3)ns2)n1.Cl 7.13

Next entry: Cc1cn2c(-c3cn[nH]c3)cnc2c(Nc2cc(CN3CCCC(F)C3)ns2)n1.Cl (centres undefined) 6.71

Same thing, different compound: Cc1cn2c(-c3cn[nH]c3)cnc2c(Nc2cc(CN3CCC(C(F)(F)F)CC3)ns2)n1.Cl 6.66

* * *

- Assay protocol: AUC (0 to 24 hrs) in Sprague-Dawley rat at 10 mg/kg, iv
- Format: ADME, organism-based
- Design: time < 24 hr, dose 10 mg/kg, route intravenous
- Experimental context: plasma
Outcome measure: AUC(0-t) at 24 h (µM·h)
Output spec: scalar in µM·h, unitless text.

| Compound string | Unit text | AUC(0-t) at 24 h |
| --- | --- | --- |
| Cc1cn2c(-c3cn[nH]c3)cnc2c(Nc2cc(CN3CCC(F)(F)C3)ns2)n1.Cl | µM·h | 12.2 |

Fill blank: measured AUC(0-t) at 24 h of the compound Cl.[2H]C([2H])(c1cc(Nc2nc(C)cn3c(-c4cn[nH]c4)cnc23)sn1)N1CCC(F)(F)C1 is ____. 63.3

* * *

So I've got IC50 readings for Serine/threonine-protein kinase Nek2 (Homo sapiens), take a look.

| Compound string | Measured result |
| --- | --- |
| Cc1cn2c(-c3cn[nH]c3)cnc2c(Nc2cc(CN3CCC(F)(F)C3)ns2)n1.Cl | > 100 nM |

Let us examine a further case.
// lookup IC50 for Cl.[2H]C([2H])(c1cc(Nc2nc(C)cn3c(-c4cn[nH]c4)cnc23)sn1)N1CCC(F)(F)C1 > 100 nM

* * *

- Assay system: RAC-alpha serine/threonine-protein kinase (Homo sapiens, UniProt P31749)
- Sequence (P31749 whole entry): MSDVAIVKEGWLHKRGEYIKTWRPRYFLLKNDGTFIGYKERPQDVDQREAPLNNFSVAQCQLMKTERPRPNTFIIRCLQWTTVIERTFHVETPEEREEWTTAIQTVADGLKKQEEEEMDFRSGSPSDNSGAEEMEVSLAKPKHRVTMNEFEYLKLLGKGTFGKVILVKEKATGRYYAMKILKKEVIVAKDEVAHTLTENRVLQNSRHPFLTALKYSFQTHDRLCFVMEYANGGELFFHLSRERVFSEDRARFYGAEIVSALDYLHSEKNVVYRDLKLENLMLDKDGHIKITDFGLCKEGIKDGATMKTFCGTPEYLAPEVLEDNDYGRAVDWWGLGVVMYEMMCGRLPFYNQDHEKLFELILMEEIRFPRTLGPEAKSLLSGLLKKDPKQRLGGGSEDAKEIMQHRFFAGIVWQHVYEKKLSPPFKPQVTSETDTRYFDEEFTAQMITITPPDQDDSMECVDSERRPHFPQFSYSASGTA
pIC50: −log10 of the molar value.
Reported pIC50 is given for each of the following molecules.

| Compound string | Measured result |
| --- | --- |
| Cl.[2H]C([2H])(c1cc(Nc2nc(C)cn3c(-c4cn[nH]c4)cnc23)sn1)N1CCC(F)(F)C1 | < 7.00 |

# context switch: different molecule, same pIC50
Give RAC-alpha serine/threonine-protein kinase (Homo sapiens, UniProt P31749) pIC50 for Cc1cn2c(-c3cn[nH]c3)cnc2c(Nc2cc(CN3CCC(F)(F)C3)ns2)n1.Cl < 7.00

* * *

- Assay protocol: AUC (0 to 24 hrs) in Beagle dog at 0.3 mg/kg, iv
- Format: ADME, organism-based, Canis lupus familiaris
- Set-up: time < 24 hr, dose 0.3 mg/kg, route intravenous
- Experimental context: plasma
Outcome measure: AUC(0-t) at 24 h (µM·h)
Please respond with the number in µM·h and leave the unit unwritten.

Fill in: AUC(0-t) at 24 h of Cc1cn2c(-c3cn[nH]c3)cnc2c(Nc2cc(CN3CCC(F)(F)C3)ns2)n1.Cl is ___ 0.4

* * *

- Assay protocol: AUC (0 to 24 hrs) in cynomolgus monkey at 30 mg/kg, po
- Type: ADME, organism-based, Macaca fascicularis
- Parameters: time < 24 hr, dose 30 mg/kg, route oral
- Experimental context: plasma
Outcome measure: AUC(0-t) at 24 h (µM·h)
Write it as a number; the unit µM·h goes unstated.

What measured AUC(0-t) at 24 h goes with Cc1cn2c(-c3cn[nH]c3)cnc2c(Nc2cc(CN3CCC(F)(F)C3)ns2)n1.Cl ? 1.7

Item: Cl.[2H]C([2H])(c1cc(Nc2nc(C)cn3c(-c4cn[nH]c4)cnc23)sn1)N1CCC(F)(F)C1 5.1

* * *

- Assay system: Protein kinase C alpha type (Homo sapiens, UniProt P17252)
Outcome measure: IC50

What does the record list as IC50 for Cl.[2H]C([2H])(c1cc(Nc2nc(C)cn3c(-c4cn[nH]c4)cnc23)sn1)N1CCC(F)(F)C1 ? > 100 nM

* * *

- Assay system: Casein kinase I isoform delta (Homo sapiens)
- Sequence (P48730 whole entry, canonical isoform): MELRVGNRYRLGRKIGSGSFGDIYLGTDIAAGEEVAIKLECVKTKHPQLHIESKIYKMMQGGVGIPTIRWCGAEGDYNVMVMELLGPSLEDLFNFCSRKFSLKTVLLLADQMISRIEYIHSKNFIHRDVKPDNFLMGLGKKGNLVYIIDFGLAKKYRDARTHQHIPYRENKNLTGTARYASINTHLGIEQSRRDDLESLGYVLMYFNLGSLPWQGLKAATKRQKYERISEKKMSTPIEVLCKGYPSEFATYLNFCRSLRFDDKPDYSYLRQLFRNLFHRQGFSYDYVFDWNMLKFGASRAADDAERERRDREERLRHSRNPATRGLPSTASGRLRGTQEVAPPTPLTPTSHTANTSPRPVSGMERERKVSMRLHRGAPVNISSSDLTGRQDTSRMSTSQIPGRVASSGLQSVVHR
- Assay protocol: Inhibition of CSNK1D
Outcome measure: IC50

These solved cases illustrate the format of a correct answer.
| Compound string | IC50 |
| --- | --- |
| Cc1cn2c(-c3cn[nH]c3)cnc2c(Nc2cc(CN3CCC(F)(F)C3)ns2)n1.Cl | > 100 nM |
| CCN(Cc1cc(Nc2nc(C)cn3c(-c4cn[nH]c4)cnc23)sn1)C(C)(C)CO | > 100 nM |

Read the next record carefully.
Recorded IC50 for Cl.[2H]C([2H])(c1cc(Nc2nc(C)cn3c(-c4cn[nH]c4)cnc23)sn1)N1CCC(F)(F)C1 with Casein kinase I isoform delta (Homo sapiens), please? > 100 nM

* * *

- Assay system: Interleukin-1 receptor-associated kinase 4 (Homo sapiens, UniProt Q9NWZ3)
- Sequence (Q9NWZ3 whole entry): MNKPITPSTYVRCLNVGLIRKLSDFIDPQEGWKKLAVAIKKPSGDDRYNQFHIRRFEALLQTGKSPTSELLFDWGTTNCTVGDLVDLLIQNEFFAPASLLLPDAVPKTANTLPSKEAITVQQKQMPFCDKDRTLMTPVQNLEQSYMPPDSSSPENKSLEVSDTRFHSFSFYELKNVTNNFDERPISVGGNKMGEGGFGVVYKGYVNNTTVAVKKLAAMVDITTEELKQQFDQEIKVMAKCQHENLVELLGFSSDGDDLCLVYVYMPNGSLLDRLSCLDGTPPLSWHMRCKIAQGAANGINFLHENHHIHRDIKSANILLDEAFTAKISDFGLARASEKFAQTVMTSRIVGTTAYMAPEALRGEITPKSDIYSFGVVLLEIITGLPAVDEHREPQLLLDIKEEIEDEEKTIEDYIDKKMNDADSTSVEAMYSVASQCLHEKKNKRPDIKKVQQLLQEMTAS
Outcome measure: IC50 (µM)
Kindly answer with a numeric value in µM, unit omitted.

Entry Cc1cn2c(-c3cn[nH]c3)cnc2c(Nc2cc(CN3CCC(F)(F)C3)ns2)n1.Cl : reported IC50 = ? 1
